Data provenance is patent US8759368B2.

EXPERIMENT_DESCRIPTION: Water solubility / hydrophobicity of conjugates (feasibility of intranasal or intravenous dosing)
RUN_PARAMETERS: mixed with water; basis for intranasal or intravenous dosing in rats
RECORDED_METRIC: water solubility (in words)

Examples from the recorded data:
COMPOUND: COc1ccc2c3c1OC1C(OC(=O)CCCCC(=O)O)=CC[C@H]4[C@@H](C2)N(C)CC[C@]314 (stereo partly drawn) [Adipate-HC, reference compound]
water solubility (in words): water soluble

COMPOUND: COc1ccc2c3c1OC1C(OC(=O)c4cccc(O)c4)=CCC4C(C2)N(C)CCC314 (stereo not drawn)
water solubility (in words): poorly water soluble

COMPOUND: COc1ccc(C(=O)OC2=CC[C@H]3[C@H]4Cc5ccc(OC)c6c5[C@@]3(CCN4C)C2O6)cc1O (stereo partly drawn)
water solubility (in words): poorly water soluble

COMPOUND: COc1ccc2c3c1OC1C(OC(=O)c4ccc5c(c4)OCO5)=CC[C@H]4[C@@H](C2)N(C)CC[C@]314 (stereo partly drawn) [Piperonylate-HC]
water solubility (in words): poorly water soluble

Now look at this one.
Recorded result, COc1ccc2c3c1OC1C(OC(=O)COCC(=O)O)=CC[C@H]4[C@@H](C2)N(C)CC[C@]314 (stereo partly drawn) [Diglycolate-HC, reference compound] , water solubility (in words): water soluble

----------
EXPERIMENT_DESCRIPTION: Chemical stability: hydrolysis to hydrocodone in 1 N HCl for 1 hour
RUN_PARAMETERS: oil bath at 100° C.
RECORDED_METRIC: %-release in 1N HCl, 100° C. (%)
Write it as a number; the unit % goes unstated.

COMPOUND: COc1ccc2c3c1OC1C(OC(=O)c4ccccc4N)=CCC4C(C2)N(C)CCC314.Cl.Cl (stereo not shown) [Compound 2-ABz-HC]
RESULT_UNITS: %
%-release in 1N HCl, 100° C.: 16
--
COMPOUND: COc1ccc2c3c1O[C@H]1C(OC(=O)c4ccc(O)cc4)=CC[C@H]4[C@@H](C2)N(C)CC[C@]314 [Compound 4-OH-Bz-HC]
RESULT_UNITS: %
%-release in 1N HCl, 100° C.: 30
--
COMPOUND: COc1ccc2c3c1OC1C(OC(=O)CCCCC(=O)O)=CC[C@H]4[C@@H](C2)N(C)CC[C@]314 (stereo partly shown) [Adipate-HC, reference compound]
RESULT_UNITS: %
%-release in 1N HCl, 100° C.: 100

Now look at this one.
Recorded result, COc1ccc(C(=O)OC2=CC[C@H]3[C@H]4Cc5ccc(OC)c6c5[C@@]3(CCN4C)C2O6)cc1O (stereo partly shown) [3-OH-4-MeO-Bz-HC] , %-release in 1N HCl, 100° C.: 35

----------
EXPERIMENT_DESCRIPTION: Water solubility / hydrophobicity of conjugates (feasibility of intranasal or intravenous dosing)
RUN_PARAMETERS: do not dissolve in a practical amount of water for intravenous dosing at oral equivalent doses
RECORDED_METRIC: hydrophobic character (in words)

Examples from the recorded data:
COMPOUND: COc1ccc2c3c1O[C@H]1C(OC(=O)c4ccccc4O)=CC[C@H]4[C@@H](C2)N(C)CC[C@]314.Cl [Compound 2-OH-Bz-HC]
VAL: hydrophobic
--
COMPOUND: COc1ccc2c3c1OC1C(OC(=O)c4cccc(O)c4)=CCC4C(C2)N(C)CCC314 (centres unmarked) [Compound 3-OH-Bz-HC]
VAL: hydrophobic
--
COMPOUND: COc1ccc2c3c1O[C@H]1C(OC(=O)c4ccc(O)cc4)=CC[C@H]4[C@@H](C2)N(C)CC[C@]314 [Compound 4-OH-Bz-HC]
VAL: hydrophobic
--
COMPOUND: COc1ccc2c3c1OC1C(OC(=O)c4cccnc4)=CCC4C(C2)N(C)CCC314 (centres unmarked) [Nicotinate-HC, nicotinate-hydrocodone]
VAL: hydrophobic

Now look at this one.
Recorded result, COc1ccc(C(=O)OC2=CC[C@H]3[C@H]4Cc5ccc(OC)c6c5[C@@]3(CCN4C)C2O6)cc1 (some centres unmarked) [Compound 4-MeO-Bz-HC] , hydrophobic character (in words): hydrophobic
